# assay-system: T1, wild type human PD-L1-Fc protein (SEQ ID NO: 107) (human)
# T1 construct: Extracellular human PD-L1 (amino acid 19-238) with Fc fragment of human IgG1, expressed in 293T cells and used as culture supernatant; also called WT PD-L1; wild-type PD-L1
# T1 sequence (chain, as listed by the source limits assumed): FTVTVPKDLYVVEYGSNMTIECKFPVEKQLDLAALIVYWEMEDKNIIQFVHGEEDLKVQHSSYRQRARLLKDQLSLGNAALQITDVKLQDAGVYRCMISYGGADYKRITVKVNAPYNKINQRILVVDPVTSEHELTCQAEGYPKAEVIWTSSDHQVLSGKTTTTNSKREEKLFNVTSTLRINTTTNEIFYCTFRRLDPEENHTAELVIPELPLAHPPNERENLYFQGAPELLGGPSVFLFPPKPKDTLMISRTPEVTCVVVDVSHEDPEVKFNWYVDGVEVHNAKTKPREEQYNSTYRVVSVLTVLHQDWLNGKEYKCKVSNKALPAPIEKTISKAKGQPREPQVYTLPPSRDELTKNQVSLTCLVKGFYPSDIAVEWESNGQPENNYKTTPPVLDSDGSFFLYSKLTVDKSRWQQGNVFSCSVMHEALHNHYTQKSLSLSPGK
# protocol-summary: ELISA on captured PD-L1-Fc, as in Example 18A
value-kind: OD450 nM of sample-2
Answer format reminder: number followed by unit.

# binder, value-kind, test-value
measured = [
    ("26F5 (antibody, V domains shown, Mouse monoclonal from hybridoma; also called mouse monoclonal antibody 26F5) VH: QVQLQQPGAELVKPGASVKLSCKASGYTFPSYWMHWMKQRPGQGLEWIGMIQPSTSGTIYNERFKNQVTLTVDKSSSTAYMQLSSQTSEDSAVYYCARGTGTVDYFDYWGQGTTLTVSS VL: DIVLTQSPASLAVSLGQRATISCRASESVDSYGNSFIHWYQQKPGQPPKLLIHRASNLESGIPATFSGSGSRTDFTLTINPVEADDVATYYCQQSKEDPYTFGGGTKLEIK", "OD450 nM of sample-2", "1.68 OD450"),
]

Look at this binder and give its reported OD450 nM of sample-2. 23F11 (antibody, V domains shown, also called mouse monoclonal antibody 23F11; clone 23F11) VH: QVQLQQPGAELVKPGASVKLSCKASGYSFTTYWMHWVKQRPGQGLEWIGMIQPNSGGTKYNEKFKKKATLTVDKSSTTASMELSSLTSEDSAVYYCARGAGTVDYFDYWGQGSTLTVSS VL: DIVLTHSPVSLAVSLGQRATISCRASESVDIYGNSFMHWYQQKPGQPPKLLIYRASNLESGIPARFSGSGSRTDFTLTINPVEADDVATYYCQQSTEDPYTFGGGTKLEIK 1.76 OD450
